The reported numbers originate from patent US5807535A.

# assay-text: Biodistribution of compound No. 6 in mice (Table 6)
# Type: in vivo, Balb/c mice
# assay-conditions: mouse, skin, 3 min, read-out: biodistribution skin
reported-metric: tissue uptake at 0.05 h
Numeric answer plus unit only.

Looking up "Cc1cc(C)c(O)c(NC(=O)CN(CCN(CC(=O)O)CC(=O)Nc2cc(C)cc(C)c2O)CC(=O)O)c1" , I found its tissue uptake at 0.05 h recorded as 3.96 %ID/g

====

Assignment: determine reported biodistribution spleen for the given compounds.
# assay-text: Biodistribution of 99mTc complexes in mice
# Type: in vivo, Balb/c mice
# assay-conditions: 30 min
Give your result in % Injected dose as a bare value.

Given item Cc1cc(C)c(O)c(NC(=O)CN(CCN(CC(=O)O)CC(=O)Nc2cc(C)cc(C)c2O)CC(=O)O)c1 [Compound 6] , the value recorded as its biodistribution spleen is 0.06

Reported biodistribution spleen for O=C(O)CN(CCN(CC(=O)O)CC(=O)Nc1ccc(Cl)cc1O)CC(=O)Nc1ccc(Cl)cc1O [Compound 2] was 0.05

Lab book: biodistribution spleen of O=C(O)CN(CCN(CC(=O)O)CC(=O)Nc1ccccc1O)CC(=O)Nc1ccccc1O [Compound 1] noted as 0.02

Recorded biodistribution spleen (compound Nc1ccc(O)c(NC(=O)CN(CCN(CC(=O)O)CC(=O)Nc2cc(N)ccc2O)CC(=O)O)c1 [Compound 5] ): 0.06

Lookup result for CC(C)(C)c1ccc(O)c(NC(=O)CN(CCN(CC(=O)O)CC(=O)Nc2cc(C(C)(C)C)ccc2O)CC(=O)O)c1 [Compound 4] ; measured biodistribution spleen: 0.06
